Catalogue of molecules with associated melting point
Quantity Name: melting point

INSERT INTO results (molecule, endpoint_value) VALUES
  ('O=C1c2cccc3cccc(c23)C(=O)N1CCN1CCC(c2c[nH]c3ccc(F)cc23)CC1', '235 °C'),
  ('Nc1cc(C(=O)O)c(N)c2c1C(=O)c1ccccc1C2=O', '352 °C'),
  ('CCCCCCCCCCCCCCCCCCOCc1ccc(C(=O)O)cc1OCCCCCCCCCCCCCCCCCC', '87 to 88 °C'),
  ('CC12CCC(=O)NC1CCc1cc(-c3cnc4ccccc4c3)ccc12 (single isomer, unassigned; (+))', '265 to 266 °C'),
  ('CC(=O)OCC1OC(n2c(Cl)nc3cc(Cl)c(Cl)cc32)C(OC(C)=O)C1OC(C)=O (centres undefined)', '145 to 146 °C'),
  ('O=C1CCCCCCCCCCCCC1', '56 °C'),
  ('CCc1cc(C(=O)c2ccccc2Cl)c(-n2c(C)nnc2CNC(=O)c2cccc(C(=O)O)c2)s1', '133 to 136 °C'),
  ('Nc1cccc(C=Cc2ccc(O)cc2)n1', '224 to 225 °C'),
  ('CCN(c1ccc(OC)cc1)S(=O)(=O)c1cccc(C(=O)Nc2ccc(C#N)cc2)c1', '168 to 169 °C');

====

Catalogue of compounds with associated melting point
Quantity Name: melting point

INSERT INTO results (smiles_repr, endpoint_value) VALUES
  ('COC(=O)NS(=O)(=O)c1cccc([N+](=O)[O-])c1', '121 to 123 °C'),
  ('COc1ccc(N2CCN(CCN3CC(C)(C)C3)C2=O)cc1Cl', '93 to 95 °C'),
  ('COC(=O)c1nc(C)c(-c2ccncc2)s1', '121 to 123 °C'),
  ('CCCCCCCCCCOc1ccc(C(=O)c2ccc(OC(=O)[C@H]3CCCO3)cc2)cc1', '80 °C'),
  ('O=C1NC(=O)c2c1c(-c1ccccc1Cl)cc1sc3ccc(O)cc3c21', '311 to 313 °C'),
  ('Cn1cnc2c1C(=O)N1CCN=C1N2Cc1ccc(Cl)cc1', '182 to 184 °C'),
  ('CCN1CC(NC(=O)c2cc(Cl)c(N)cc2OC)CN1CC', '117 to 119 °C'),
  ('CC(C)(CS(C)(=O)=O)NC(=O)c1c(NC(=O)c2cc(C(F)(F)F)nn2-c2ncccc2Cl)c(Cl)cc2cn[nH]c12', '173 to 176 °C'),
  ('CC(C)Nc1nc(Cl)nc(NCCS)n1', '141 to 146 °C'),
  ('O=C(Cl)c1cccc(Oc2ccc(S(=O)(=O)c3ccc(Oc4cccc(C(=O)Cl)c4)cc3)cc2)c1', '113 to 116 °C');

====

Quantity Name: melting point

INSERT INTO assay_data (smiles_repr, quantity_name, endpoint_value) VALUES
  ('CCOCCOC(=O)C(=O)Nc1nc(-c2c(C)cc(C)cc2C)cs1', 'melting point', '124 to 125 °C'),
  ('COCc1cc2c(s1)CCCc1cc(=O)n(-c3ccc(Cl)cc3)nc1-2', 'melting point', '135 to 137 °C'),
  ('Cc1nc(CN(C)C)n2c1CN=C(c1ccccc1Cl)c1cc(Cl)ccc1-2', 'melting point', '185 to 186 °C'),
  ('CCCNC(=O)c1nc(-c2ccccc2)c(-c2ccc(=O)[nH]n2)s1', 'melting point', '232 to 233 °C'),
  ('CCN(O)C(=O)Cc1ccc2c(c1)C(=O)c1ccccc1CO2', 'melting point', '119 to 121 °C'),
  ('COc1cc(C=CC2=CC(=O)C(C)(C)O2)cc(OC)c1OC', 'melting point', '149 to 150 °C'),
  ('CC(C)(C)C(=O)c1c[nH]c2ncc(-c3ccc(N4CCN(CCO)CC4)cc3)nc12', 'melting point', '211 to 213 °C'),
  ('CCOC(=O)c1cnn(-c2c(Cl)cc(C(F)(F)F)cc2Cl)c1C', 'melting point', '61 to 62 °C'),
  ('O=C(Nc1ccccc1)N1CC(Oc2cccc(C(F)(F)F)c2)C1', 'melting point', '137 to 138 °C'),
  ('CCOCc1nc2c(N)nc3ccccc3c2n1CCCCS(=O)(=O)NC(C)C', 'melting point', '146 to 147 °C');
